# target: Bifunctional epoxide hydrolase 2 (Homo sapiens)
# Sequence (whole entry): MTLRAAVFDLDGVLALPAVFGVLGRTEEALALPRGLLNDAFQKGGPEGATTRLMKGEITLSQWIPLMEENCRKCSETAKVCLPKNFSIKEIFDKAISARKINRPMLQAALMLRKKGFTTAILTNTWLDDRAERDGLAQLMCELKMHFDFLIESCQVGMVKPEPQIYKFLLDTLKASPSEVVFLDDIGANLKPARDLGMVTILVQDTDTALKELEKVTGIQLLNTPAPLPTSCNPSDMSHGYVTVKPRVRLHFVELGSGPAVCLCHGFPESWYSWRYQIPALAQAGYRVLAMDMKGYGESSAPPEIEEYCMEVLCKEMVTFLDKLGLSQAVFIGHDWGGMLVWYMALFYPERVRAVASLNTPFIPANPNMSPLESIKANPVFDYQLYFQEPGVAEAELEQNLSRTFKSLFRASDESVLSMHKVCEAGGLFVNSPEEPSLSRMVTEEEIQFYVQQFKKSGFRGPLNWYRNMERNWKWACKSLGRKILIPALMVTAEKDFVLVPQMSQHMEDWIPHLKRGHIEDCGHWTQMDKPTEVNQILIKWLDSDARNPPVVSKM
# test name: Inhibition of human sEH at 10 uM relative to control
quantity name: inhibition

# count of solved cases: 2
[
  {
    "compound": "O=C(c1nc2ccc(Cl)cc2nc1O)C(O)c1ccc2c(c1)OCO2 (stereo not drawn)",
    "quantity name": "inhibition",
    "observed result": "> 35%"
  },
  {
    "compound": "CC(=O)c1cccc2cc(CC(=O)c3ccccc3)c(=O)oc12",
    "quantity name": "inhibition",
    "observed result": "> 35%"
  }
]

Okay, next one:
Exam item: Name the recorded inhibition for N=c1c2c(ncn1Cc1ccccc1)CCN(Cc1ccccc1)C2 .
Marked response: > 35%
